system: IGROV1 ovarian; assay: NCI-60 one-dose screen, 48 h; conditions: 10 µM unless noted
Compounds without any hit were thinned out: in the full panel of roughly 83,000, 20% have a hit. Calls of active or inactive are those of the source. How the source made its calls: active means growth percent below 10; inactive means the rest.
Possible outcomes: yes (1) = active, no (0) = inactive

- molecule: "C=C(C)[C@@H]1C[C@H](O)Cc2cc(F)ccc2N1"
  label: "no (0)"
- molecule: "C=C(C)[C@@H]1C[C@@H]2Cc3ccc(Cl)c(C)c3N1O2"
  label: "no (0)"
- molecule: "COc1cc(NC(N)=NCCC(C)(C)c2ccc(C(F)(F)F)cc2)ncc1C#N"
  label: "no (0)"
- molecule: "O=C(O)Cc1cccc(=O)c(O)c1C(=O)O"
  label: "no (0)"
- molecule: "O=C(NNC(=O)N1c2ccccc2C=Cc2ccccc21)c1ccc2ccccc2c1"
  label: "no (0)"
- molecule: "CC(=O)Oc1csc(N(C(C)=O)c2cc(C(=O)O)cc(C(=O)O)c2)n1"
  label: "no (0)"
- molecule: "CC(C)(C)n1cc(-c2ccnc(NCCCNS(=O)(=O)c3ccc(C(F)(F)F)cc3)c2)c(-c2cccc(O)c2)n1"
  label: "no (0)"
- molecule: "CCOC(=O)CC(=O)OC"
  label: "no (0)"
- molecule: "NC1=NC(SCc2ccccc2CCl)c2ncn(Cc3ccccc3CCl)c2N1 (stereo unspecified)"
  label: "yes (1)"
- molecule: "ClC(Cl)c1nc(-c2cccnc2)n2nc(-c3ccccc3)cc2n1"
  label: "no (0)"
- molecule: "Cn1ccc(Nc2nccc(Oc3ccc(C(=O)Nc4cccc(F)c4)c(Cl)c3)n2)c1"
  label: "no (0)"

###

tested on: HCT-116 colon; experiment: NCI-60 one-dose screen, 48 h; conditions: 10 µM unless noted
About 83,000 compounds went through this panel and 20% of them were active in at least one assay; those are over-represented in the sample as a whole. Activity calls are given as the source filed them. Rule for the calls: active = growth percent below 10; inactive = the rest.
Possible outcomes: T = active, F = inactive

- molecule: "CC(=O)Nc1ccc(/C=C/C(=O)c2ccccc2)cc1"
  label: "F"
- molecule: "CN1C(=O)N(C)C2C1NN=c1s/c(=C\\c3cccnc3)c(=O)n12 (centres undefined)"
  label: "F"
- molecule: "Cn1ccc(Nc2nccc(Oc3ccc(C(=O)Nc4cccc(F)c4)c(Cl)c3)n2)c1"
  label: "F"
- molecule: "CCO/C=N/C1=C(C#N)C(c2ccc(Cl)cc2)c2c(c3ccc(C)cc3[nH]c2=O)O1 (centres undefined)"
  label: "F"
- molecule: "COc1cc(-c2nn(-c3cccc(NC(=O)c4cccc(C(F)(F)F)c4)c3)cc2-c2ccncc2)ccc1Cl"
  label: "T"
- molecule: "O=C(Nc1ccncc1)C(=O)c1cn(S(=O)(=O)c2ccc(Oc3ccccc3)cc2)c2ccccc12"
  label: "F"
- molecule: "COc1ccc(-n2c(-c3ccccc3)c(-c3ccccc3)c3c(SCC(=O)N/N=C/c4ccc(Cl)cc4)ncnc32)cc1"
  label: "F"
- molecule: "C/C=C/C1=CN2C(=O)c3cc(OC4OC(C)C(NC)C(C)(O)C4O)c(C)cc3N=C[C@@H]2C1 (some centres undefined)"
  label: "T"
- molecule: "COc1cc2c(cc1O)CCN1C[C@@H](CC(C)C)[C@@H](O)C[C@@H]21"
  label: "F"
- molecule: "COc1cc(C2NN=C3c4ccccc4CCC32)cc(OC)c1OC (centres undefined)"
  label: "F"
- molecule: "COc1cc(-c2nn(C(=O)NS(=O)(=O)c3ccccc3)cc2-c2ccncc2)ccc1Cl"
  label: "F"
- molecule: "CC(C)(C)N1CCC1C(N)=O (centres undefined)"
  label: "F"
- molecule: "CC(C)(C)n1cc(-c2ccnc(NCCCNS(=O)(=O)c3ccc(C(F)(F)F)cc3)c2)c(-c2cccc(O)c2)n1"
  label: "F"
- molecule: "COc1ccc(Nc2ncccc2C(=O)NCc2cn(Cc3cccc(Oc4ccccc4)c3)nn2)cc1"
  label: "F"
- molecule: "CCN1CCN(CC(=O)N2c3cccc4cccc(c34)N(C(=O)CN3CCN(CC)CC3)C2c2cn(-c3ccccc3)nc2-c2cccc([N+](=O)[O-])c2)CC1"
  label: "T"
- molecule: "CC(C)(C)n1cc(-c2ccnc(NCCNS(=O)(=O)c3ccc(C(F)(F)F)cc3)c2)c(-c2cccc(O)c2)n1"
  label: "F"
- molecule: "Clc1cc(Cl)cc(-c2ccc(-c3ccc(/C=N/NC4=NCCN4)cc3)s2)c1"
  label: "T"
- molecule: "COc1ccc(-n2c(=O)sc3c(Cl)nc(C)nc32)c(OC)c1"
  label: "F"
- molecule: "CN1CCN(Cc2ccc(NC(=O)c3cncc(C#Cc4cnc(N)c5ccncc45)c3)cc2C(F)(F)F)CC1"
  label: "T"

###

tested on: BT-549 breast; test: NCI-60 one-dose screen, 48 h; conditions: 10 µM unless noted
About 83,000 compounds went through this panel and 20% of them were active in at least one assay; those are over-represented in the sample as a whole. Active and inactive are the calls of the source. How the source made its calls: active means growth percent below 10; inactive means the rest.
Classes used: 1 (active), -1 (inactive)

- compound: "CCCCCCCCC(C)OC(=O)c1nn(C(C)=O)c2ccccc12 (configuration not stated)"
  label: -1
- compound: "N#Cc1ccc(N2Cc3ccccc3OC3=C2C(=O)c2c(O)ccc(O)c2C3=O)cc1"
  label: 1
- compound: "O=C1CS/C(=N\\Nc2cc(=O)[nH]c3ccccc23)N1c1ccccc1"
  label: -1
- compound: "Clc1cccc(-c2cc(-c3ccc4c(c3)OCCO4)[nH]n2)c1"
  label: -1
- compound: "COc1cc(Nc2ncccc2C(=O)NCc2cn(Cc3cccc(Oc4ccccc4)c3)nn2)cc(OC)c1"
  label: -1
- compound: "C=C(C)[C@@H]1C[C@H](O)Cc2cc(F)ccc2N1"
  label: -1
- compound: "CC(=O)Oc1csc(N(C(C)=O)c2cc(C(=O)O)cc(C(=O)O)c2)n1"
  label: -1
- compound: "O=C(NS(=O)(=O)c1ccc2ccccc2c1)n1cc(-c2ccncc2)c(-c2ccc(Cl)c(O)c2)n1"
  label: -1
- compound: "COc1ccc2[nH]c(=O)c3c4ccccc4cn3c2c1"
  label: -1
- compound: "CC(C)(C)NCCC(O)c1cc2c(Cl)cc(Cl)cc2c2cc(C(F)(F)F)ccc12 (configuration not stated)"
  label: -1
- compound: "COc1ccc(-c2ccc(C)n2-c2ccc(-c3nc4ccccc4s3)cc2)cc1"
  label: -1
- compound: "Cn1c2ccc(Br)cc2c2c3c(c4c5ccccc5[nH]c4c21)C(=O)N(O)C3=O"
  label: 1
- compound: "N#C/C(=C1C=C/C(=N/O)C(Cl)=C/1)c1ccc(Cl)cc1"
  label: -1
- compound: "COc1cc(Cn2cc3c(c2)-c2oncc2CC3)cc(OC)c1OC"
  label: -1
- compound: "O=C(O)Cc1cccc(=O)c(O)c1C(=O)O"
  label: -1
- compound: "CC(C)(C)OC(=O)NCCc1ccc(N=C=S)cc1"
  label: -1
- compound: "O=C1Nc2ccc3c(c2/C1=C\\c1cc2c(cc1Br)OCO2)OCO3"
  label: -1
- compound: "Cc1ccc(-c2nc(C(Cl)Cl)n3nc(-c4ccccc4)cc3n2)cc1"
  label: -1
- compound: "Cc1cc(N)n(S(=O)(=O)c2oc(-c3ccccc3)nc2C#N)n1"
  label: -1
- compound: "CCO/C=N/C1=C(C#N)C(c2ccc(Cl)cc2)c2c(c3ccccc3n(C)c2=O)O1 (configuration not stated)"
  label: -1
- compound: "Fc1ccc(-c2nc(-c3nc4ncccc4[nH]3)cc3c2[nH]c2ccccc23)cc1F"
  label: -1
- compound: "NC(N)=Nc1nc2ccccc2o1"
  label: -1
